Reference source for all entries: the RNAGym collection of RNA variant scans (doi:10.7554/elife.90254)

B1: LINE1-full (parent)
chain: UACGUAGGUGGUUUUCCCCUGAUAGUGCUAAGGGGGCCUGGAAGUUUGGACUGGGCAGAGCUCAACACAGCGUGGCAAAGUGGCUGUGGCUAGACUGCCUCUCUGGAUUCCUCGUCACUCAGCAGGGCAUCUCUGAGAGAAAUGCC

variants of: B1; assay: self-cleavage, relative activity (ratio to wild type); higher = more cleavage; in vitro, sequencing; the parent is a self-cleaving ribozyme
Answer NOT MET if self-cleavage is under 0.9, and MET if it is 0.9 or more.

q: Does the variant U9G A22G have recorded self-cleavage that is 0.9 or more?
a: MET

q: Does the variant U85A A124G have recorded self-cleavage that is 0.9 or more?
a: NOT MET

q: Does the variant G35U A141G have recorded self-cleavage that is 0.9 or more?
a: MET

q: Does the variant U14A A43G have recorded self-cleavage that is 0.9 or more?
a: NOT MET

q: Does the variant U45C A136U have recorded self-cleavage that is 0.9 or more?
a: MET

q: Does the variant U45A U115C have recorded self-cleavage that is 0.9 or more?
a: MET

q: Does the variant U26C U109C have recorded self-cleavage that is 0.9 or more?
a: MET

q: Does the variant U47C U62A have recorded self-cleavage that is 0.9 or more?
a: NOT MET

q: Does the variant A50G A136G have recorded self-cleavage that is 0.9 or more?
a: MET

q: Does the variant A117G G137A have recorded self-cleavage that is 0.9 or more?
a: MET

q: Does the variant G58U A124G have recorded self-cleavage that is 0.9 or more?
a: NOT MET

q: Does the variant U73A U130C have recorded self-cleavage that is 0.9 or more?
a: MET

q: Does the variant U112C U130A have recorded self-cleavage that is 0.9 or more?
a: MET

q: Does the variant G72U C76U have recorded self-cleavage that is 0.9 or more?
a: MET
